Quick reference: kon of the listed items.
- tgt: T1, glutathione S-transferase (UniProt P08515 1-218 = GST)
- T1 construct: Expressed in E. coli, purified on GSH resin; also called GST
- assayDetails: SPR, GST immobilised;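 also: nanobody analytes injected as dilution series over three orders of magnitude across antigen on a CM5 chip, kinetics fitted by 1:1 Langmuir model, optionally with mass transfer, duplicate runs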
measuredEndpoint: kon (M⁻¹ s⁻¹)

binder	valueMeasured
G95 (VHH, also called G95(C2)) VHH: HVQLVESGGGLVQAGGSLRLSCAASGRTFSSYAMAWFRQAVGKEREFVAAVSRSGTNLYYADSVKGRFTISRDTAKNTMYLQMNSLKPEDTALYYCAAGEALRWGIGQQPRSEFFDYWGQGTQVTVSS	13900
G60 (VHH, also called G60(C1)) VHH: QMGRNSAEVQLVESGGSLRLSCAASGSGFSSSIIAWYRQAPGKQRELVAAIGGPGSTNYADFVEGRFTISRDNAKNTGYLQMNNLNPEDTAVYYCNEVTRSGREYWGQGTQVTVSS	4870
G34 (VHH) VHH: QVQLVESGGGLVQAGDSLRLSCAASGRTFSRYAMAWFRQAPGKEREFVAGISWTGRFTYYADSVKGRFTISRDDAKNTVYLQMNNLKPEDTGLYFCKVGDPYGVGLREYEWWGPGTQVTVSS	26300
G17 (VHH) VHH: EVQLVESGGGLVQAGGSLRLSCAASGVTISYWVMGWFRQAPGKEREFVARISWGGERTYYADSVKGRFAISRDNAKNTVYLQMNSLNAEDTAVYYCAADRTGWGHSNSRSEYDYWGQGTQVTVSS	1.34e+06
G83 (VHH) VHH: QVQLVESGGGLVQAGGSLRLSCAASRRTFSIYNMGWFRQAPGKEREFVATITRYGDRTYTADSVKGRFTISSDQAKNTVYLQMNSLNPHDTAVYYCAADSAYSGPDFKHYDYWGQGTQVTVSS	987000
G48 (VHH) VHH: QVQLVESGGGLVQAGGSLRLSCAASGRTFSTLSMGWFRQAPGQGREFVGGINYDGSSVEYADSVKGRFTISRDNAKNMMYLQMNSLKPEDTAAYYCASSRGYNTGTNPLGYDVWGQGTQVTVSS	5930
G82 (VHH) VHH: HVQLVESGGGLVQAGGSLRLSCAASGKIFSLSTMGWYRQAPGKQRELVAALTSGGSTNYADSVKGRFTISRDNAKYTTYLQMNSLKPEDTAVYYCNVRYYSGYDGYESNSWGQGTQVTVSS	1.11e+06
G47 (VHH) VHH: QVQLVESGGGLVQAGGSLRLSCAASERIFSNYAMGWFRQAPGKEREFVASIRGSGSQTSYADSVKGRFTISRDGAKDTVDLQMNSLKPEDTAVYYCSAKKYCGSTYNRAEGYDYWGQGTQVTVSS	391000
